The origin of these recorded values is patent US20210363269A1.

# assay.system: T1, human SIRP-α v1 (human, UniProt P78324 31-149)
# T1 construct: also called Human v1; Human V1
# T1 sequence (P78324 31-149 limits assumed): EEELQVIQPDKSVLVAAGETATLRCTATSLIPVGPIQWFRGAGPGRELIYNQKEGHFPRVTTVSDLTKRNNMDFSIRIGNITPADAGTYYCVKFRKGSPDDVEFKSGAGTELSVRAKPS
# procedure.summary: SPR
property.label: koff (s⁻¹)
Note: unit s⁻¹ is implicit; provide only the numeric part.

Ask: Look up koff: Hum3/AB25_HC_wt (antibody, V domains shown) VH: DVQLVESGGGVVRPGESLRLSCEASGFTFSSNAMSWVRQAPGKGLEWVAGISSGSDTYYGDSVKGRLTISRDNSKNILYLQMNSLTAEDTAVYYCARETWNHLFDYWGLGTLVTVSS VL: SYELTQPPSVSVSPGQTARITCSGGDYYSTYYAWYQQKPGQAPVTVIHSDDKRPSDIPERFSGSSSGTTVTLTISGVQAEDEADYYCGGYDGRTYINTFGGGTKLTVL
Result: 5.94e-05

Ask: Look up koff: Hum1/AB25_HC_wt (antibody, V domains shown) VH: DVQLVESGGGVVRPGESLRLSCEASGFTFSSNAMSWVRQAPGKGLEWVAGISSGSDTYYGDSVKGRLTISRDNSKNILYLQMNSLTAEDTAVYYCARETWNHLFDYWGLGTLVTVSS VL: SYELTQPPSVSVSPGQTARITCSGGSYSSYYYAWYQQKPGQAPVTLIYSDDKRPSNIPERFSGSSSGTTVTLTISGVQAEDEADYYCGGYDQSSYTNPFGGGTKLTVL
Result: 0.000133

Ask: Look up koff: Hum3/AB66_HC_wt (antibody, V domains shown) VH: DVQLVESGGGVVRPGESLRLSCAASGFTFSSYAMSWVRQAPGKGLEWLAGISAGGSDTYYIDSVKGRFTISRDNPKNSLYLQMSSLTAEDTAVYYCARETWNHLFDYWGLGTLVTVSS VL: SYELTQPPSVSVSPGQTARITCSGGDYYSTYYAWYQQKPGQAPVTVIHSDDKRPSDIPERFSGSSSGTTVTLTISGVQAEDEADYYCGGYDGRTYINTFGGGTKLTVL
Result: 0.000124

Ask: Look up koff: Hum1/AB27_HC_wt (antibody, V domains shown) VH: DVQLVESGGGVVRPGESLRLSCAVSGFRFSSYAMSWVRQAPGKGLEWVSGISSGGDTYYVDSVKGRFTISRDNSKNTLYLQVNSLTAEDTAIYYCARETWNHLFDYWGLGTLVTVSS VL: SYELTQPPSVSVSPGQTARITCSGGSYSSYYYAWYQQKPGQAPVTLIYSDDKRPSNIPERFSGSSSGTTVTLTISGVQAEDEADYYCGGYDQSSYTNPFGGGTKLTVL
Result: 0.000192

Ask: Look up koff: Hum3/AB27_HC_wt (antibody, V domains shown) VH: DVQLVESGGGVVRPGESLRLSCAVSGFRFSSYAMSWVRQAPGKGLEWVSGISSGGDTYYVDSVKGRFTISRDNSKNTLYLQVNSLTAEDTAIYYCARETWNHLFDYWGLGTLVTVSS VL: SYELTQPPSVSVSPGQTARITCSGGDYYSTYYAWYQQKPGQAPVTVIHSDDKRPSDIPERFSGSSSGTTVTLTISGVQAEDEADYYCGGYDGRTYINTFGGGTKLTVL
Result: 0.000216

Ask: Look up koff: Hum3/AB21_HC_wt (antibody, V domains shown) VH: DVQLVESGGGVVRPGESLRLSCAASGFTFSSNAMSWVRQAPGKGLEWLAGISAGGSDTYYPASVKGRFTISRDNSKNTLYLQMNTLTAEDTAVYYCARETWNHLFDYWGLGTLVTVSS VL: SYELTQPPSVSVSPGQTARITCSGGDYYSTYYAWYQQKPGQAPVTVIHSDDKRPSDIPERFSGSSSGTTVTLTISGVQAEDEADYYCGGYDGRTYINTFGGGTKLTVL
Result: 0.000137

Ask: Look up koff: Hum1/AB66_HC_wt (antibody, V domains shown) VH: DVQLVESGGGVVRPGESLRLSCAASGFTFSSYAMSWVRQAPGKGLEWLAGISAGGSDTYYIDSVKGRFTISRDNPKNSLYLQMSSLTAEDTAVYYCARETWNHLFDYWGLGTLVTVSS VL: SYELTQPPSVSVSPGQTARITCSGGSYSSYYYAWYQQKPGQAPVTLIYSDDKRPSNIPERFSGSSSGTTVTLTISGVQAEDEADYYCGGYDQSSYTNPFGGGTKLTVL
Result: 0.000124
